Listing of recorded Papp by entry.
measurement protocol: passive permeability, PAMPA, ADME assay (AID 1508612)
assay conditions: pH 7.4, 30.0 min, 50.0 µM

>  <compound>
COCCCOc1ccnc(CS(=O)c2nc3ccccc3[nH]2)c1C (configuration not stated)

>  <scale unit>
nm/s

>  <censoring operator>
=

>  <Papp>
2120

$$$$
>  <compound>
Cn1nnnc1SCCCNCc1cccc(OCc2ccccc2Cl)c1

>  <scale unit>
nm/s

>  <censoring operator>
>

>  <Papp>
10000

$$$$
>  <compound>
Cc1noc(C)c1-c1cc2c(cc(C)n2C)c(-c2cnn(C)c2)n1

>  <scale unit>
nm/s

>  <censoring operator>
=

>  <Papp>
5490

$$$$
>  <compound>
O=[N+]([O-])c1cccc(CSc2nc3ncc(Br)cc3[nH]2)c1

>  <scale unit>
nm/s

>  <censoring operator>
=

>  <Papp>
5500

$$$$
>  <compound>
CN1C(=O)CN=C(c2ccccc2Cl)c2cc(Cl)ccc21

>  <scale unit>
nm/s

>  <censoring operator>
>

>  <Papp>
10000

$$$$
>  <compound>
COc1ccnc(NC(=S)N2CCN(c3ncc(C(F)(F)F)cc3Cl)CC2)c1

>  <scale unit>
nm/s

>  <censoring operator>
>

>  <Papp>
10000

$$$$
>  <compound>
CSc1cc2c(s1)c1cnn(Cc3cccc(N)c3)c(=O)c1n2C

>  <scale unit>
nm/s

>  <censoring operator>
>

>  <Papp>
10000

$$$$
>  <compound>
CC(=O)Nc1ccc(N[S+](=O)([O-])c2cccc(NC(=O)c3[nH]c(C)c(C(C)=O)c3C)c2)cc1

>  <scale unit>
nm/s

>  <censoring operator>
=

>  <Papp>
206

$$$$
>  <compound>
c1ccc(CNc2nc(NCc3ccccc3)c3ccccc3n2)cc1

>  <scale unit>
nm/s

>  <censoring operator>
=

>  <Papp>
2530

$$$$
>  <compound>
CN1C[C@@H]2C[C@H]1CN2c1cc2c(cc1F)c(=O)c(C(=O)O)cn2C1CC1

>  <scale unit>
nm/s

>  <censoring operator>
<

>  <Papp>
10

$$$$
>  <compound>
COc1ccc(-c2ccc3ncc(Nc4ccc(C(N)=O)cc4)n3n2)cc1OC

>  <scale unit>
nm/s

>  <censoring operator>
=

>  <Papp>
1490

$$$$
>  <compound>
O=C(/C=C/c1cn(CC(O)CN2CCCCCC2)c2ccccc12)c1ccc(Br)cc1 (configuration not stated)

>  <scale unit>
nm/s

>  <censoring operator>
=

>  <Papp>
9310

$$$$

----------
Listing of recorded Papp by entry.
measurement protocol: passive permeability, PAMPA, ADME assay (AID 1508612)
assay conditions: pH 7.4, 30.0 min, 50.0 µM
parameter measured: Papp

>  <compound>
Cn1cc(Br)c(C2N=C(Nc3nc4ccccc4o3)NC3=C2C(=O)CCC3)n1 (stereo not given)

>  <parameter measured>
Papp

>  <result value>
> 1000 ×10⁻⁶ cm/s

$$$$
>  <compound>
Cc1sc2c(c1C)C(c1ccc(Cl)cc1)=N[C@H](CC(=O)NCCCCNC(=O)COc1cccc3c1C(=O)N([C@H]1CCC(=O)NC1=O)C3=O)c1nnc(C)n1-2

>  <parameter measured>
Papp

>  <result value>
< 1 ×10⁻⁶ cm/s

$$$$
>  <compound>
O=c1[nH]c(N2CCOCC2)nc2c1CCN(Cc1ccc(Cl)cc1F)CC2

>  <parameter measured>
Papp

>  <result value>
> 1000 ×10⁻⁶ cm/s

$$$$
>  <compound>
Cc1ccnc(NC(=S)N2CC[C@@H](Nc3cccc(C(F)(F)F)c3)C2)c1

>  <parameter measured>
Papp

>  <result value>
> 1000 ×10⁻⁶ cm/s

$$$$
>  <compound>
O=C(Nc1nc(-c2ccccc2)cs1)c1ccncc1NS(=O)(=O)c1ccc(F)c(F)c1

>  <parameter measured>
Papp

>  <result value>
> 1000 ×10⁻⁶ cm/s

$$$$
>  <compound>
CCc1cccc(NS(=O)(=O)c2ccc3c(c2)CC(C)N3C(=O)C2CC2)c1 (stereo not given)

>  <parameter measured>
Papp

>  <result value>
> 1000 ×10⁻⁶ cm/s

$$$$
>  <compound>
O=C(Nc1ccc(S(=O)(=O)Nc2nccs2)cc1)c1ccnc(-c2ccccc2)c1

>  <parameter measured>
Papp

>  <result value>
< 1 ×10⁻⁶ cm/s

$$$$
>  <compound>
C[C@H]1CN(C(=O)Nc2ccc(F)cc2F)C[C@@H]1c1nc(-c2ccccc2)no1

>  <parameter measured>
Papp

>  <result value>
> 1000 ×10⁻⁶ cm/s

$$$$
>  <compound>
Cc1cc(F)ccc1S(=O)(=O)Nc1cnccc1C(=O)Nc1nc(-c2ccccc2)cs1

>  <parameter measured>
Papp

>  <result value>
> 1000 ×10⁻⁶ cm/s

$$$$
>  <compound>
CCc1cc(Cl)c(OC)c(C(=O)NC[C@@H]2CCCN2CC)c1O

>  <parameter measured>
Papp

>  <result value>
> 1000 ×10⁻⁶ cm/s

$$$$

----------
Listing of recorded Papp by entry.
measurement protocol: passive permeability, PAMPA, ADME assay (AID 1508612)
assay conditions: pH 7.4, 30.0 min, 50.0 µM
parameter measured: Papp (×10⁻⁶ cm/s)

>  <molecule>
Cc1nn2c(c1-c1ccccc1-c1ccccc1)N(CC1CC1)CCC2

>  <parameter measured>
Papp

>  <scale unit>
×10⁻⁶ cm/s

>  <censoring operator>
>

>  <result value>
1000

$$$$
>  <molecule>
COc1ccccc1CNc1ccc(N2CCCCC2)cc1

>  <parameter measured>
Papp

>  <scale unit>
×10⁻⁶ cm/s

>  <censoring operator>
>

>  <result value>
1000

$$$$
>  <molecule>
COc1cc(Cl)c(C)cc1NC(=O)CSc1ncc(S(=O)(=O)c2ccc(C(C)(C)C)cc2)c(=O)[nH]1

>  <parameter measured>
Papp

>  <scale unit>
×10⁻⁶ cm/s

>  <censoring operator>
=

>  <result value>
16.2

$$$$
>  <molecule>
COc1ccc(C(=O)N2CCCC(c3nn(-c4ccc(OC)cc4)c(=O)[nH]3)C2)cc1 (stereo not given)

>  <parameter measured>
Papp

>  <scale unit>
×10⁻⁶ cm/s

>  <censoring operator>
=

>  <result value>
599

$$$$
>  <molecule>
COc1ccc(-c2noc([C@@H]3Cc4nc[nH]c4CN3C(=O)NC3CCCCC3)n2)cc1

>  <parameter measured>
Papp

>  <scale unit>
×10⁻⁶ cm/s

>  <censoring operator>
=

>  <result value>
517

$$$$

----------
measurement protocol: passive permeability, PAMPA, ADME assay (AID 1508612)
assay conditions: pH 7.4, 30.0 min, 50.0 µM
Response key: true means Papp >= 800 ×10⁻⁶ cm/s; false means Papp < 800 ×10⁻⁶ cm/s.

>  <compound>
Cc1ccnc(NC(=S)N2CCN(c3cccc(C(F)(F)F)c3)CC2)c1

>  <class>
true

$$$$
>  <compound>
Cc1ccc(S(=O)(=O)Nc2ccccc2C(=O)Nc2ncc(-c3ccccc3)o2)cc1

>  <class>
false

$$$$
>  <compound>
O=C(NC1CCCc2c1cnn2-c1ccc(F)cc1F)c1ccccc1 (stereo not given)

>  <class>
true

$$$$
>  <compound>
CC(=O)N1CCN(c2nc(-c3ccc(Br)cc3)cs2)CC1

>  <class>
true

$$$$
>  <compound>
COc1ccc(CCNc2ncnc3onc(C)c23)c(OC)c1

>  <class>
false

$$$$
>  <compound>
Cn1cnc(S(=O)(=O)Nc2cnccc2C(=O)Nc2nc(-c3ccccc3)cs2)c1

>  <class>
false

$$$$
>  <compound>
COc1ccc(Cn2c(C(=O)O)c(CNCc3ccco3)c3ccc(C)cc32)cc1

>  <class>
false

$$$$
>  <compound>
CCCCN(CC)CCCNC(=O)c1ccc2c(c1)N(Cc1ccc(C)cc1)C(=O)c1ccccc1S2

>  <class>
true

$$$$
>  <compound>
Cc1cccc(-n2cnc3cc(C(=O)N4CCCCC4)ccc32)c1

>  <class>
true

$$$$
>  <compound>
CCCN1CNc2c(c(=O)[nH]c(=S)n2CCc2ccc(OC)c(OC)c2)C1

>  <class>
false

$$$$

----------
measurement protocol: passive permeability, PAMPA, ADME assay (AID 1508612)
assay conditions: pH 7.4, 30.0 min, 50.0 µM

>  <cpd smiles>
c1ccc(-c2ccc(CNc3nc(-c4ccccn4)nnc3-c3ccccc3)cc2)cc1

>  <Papp>
> 1000 ×10⁻⁶ cm/s

$$$$
>  <cpd smiles>
O=C(Nc1ccc2c(N3CCOCC3)ncnc2c1)c1cccc(Br)c1

>  <Papp>
> 1000 ×10⁻⁶ cm/s

$$$$
>  <cpd smiles>
CCOC(=O)c1[nH]c(C)c(CCC(=O)N2CCN(c3cccc(C)c3C)CC2)c1C

>  <Papp>
> 1000 ×10⁻⁶ cm/s

$$$$

----------
Listing of recorded Papp by entry.
measurement protocol: passive permeability, PAMPA, ADME assay (AID 1508612)
assay conditions: pH 7.4, 30.0 min, 50.0 µM

>  <cpd smiles>
O=C1Nc2ccccc2/C1=C/c1ccnc2ccccc12

>  <Papp>
> 1000 ×10⁻⁶ cm/s

$$$$
>  <cpd smiles>
CC(C)c1ccccc1-c1ncc(F)c(NCc2ccc(-n3ccnn3)cc2)n1

>  <Papp>
> 1000 ×10⁻⁶ cm/s

$$$$
>  <cpd smiles>
CC(C)Nc1oc(-c2cccc3ccccc23)nc1C#N

>  <Papp>
> 1000 ×10⁻⁶ cm/s

$$$$
>  <cpd smiles>
Cc1cn2c(-c3cn[nH]c3)cnc2c(Nc2ccc(C(=O)N3CCNCC3)cc2F)n1

>  <Papp>
< 1 ×10⁻⁶ cm/s

$$$$
>  <cpd smiles>
O=C(Nc1ccc(N2CCC(N3CCCCC3)CC2)c(C(=O)O)c1)c1ccc(Br)cc1

>  <Papp>
< 1 ×10⁻⁶ cm/s

$$$$
>  <cpd smiles>
COc1cccc(CNCCSc2nnnn2C)c1OCc1ccc(Cl)cc1Cl

>  <Papp>
> 1000 ×10⁻⁶ cm/s

$$$$
>  <cpd smiles>
NC(=O)C1CCN(c2nc(-c3ccc4c(c3)CCO4)cs2)CC1

>  <Papp>
> 1000 ×10⁻⁶ cm/s

$$$$
